Every entry's value here was drawn from patent US11739098B2.

# SYSTEM_NAME: human TLR8 (Homo sapiens)
# Sequence (Q9NR97 27-1041): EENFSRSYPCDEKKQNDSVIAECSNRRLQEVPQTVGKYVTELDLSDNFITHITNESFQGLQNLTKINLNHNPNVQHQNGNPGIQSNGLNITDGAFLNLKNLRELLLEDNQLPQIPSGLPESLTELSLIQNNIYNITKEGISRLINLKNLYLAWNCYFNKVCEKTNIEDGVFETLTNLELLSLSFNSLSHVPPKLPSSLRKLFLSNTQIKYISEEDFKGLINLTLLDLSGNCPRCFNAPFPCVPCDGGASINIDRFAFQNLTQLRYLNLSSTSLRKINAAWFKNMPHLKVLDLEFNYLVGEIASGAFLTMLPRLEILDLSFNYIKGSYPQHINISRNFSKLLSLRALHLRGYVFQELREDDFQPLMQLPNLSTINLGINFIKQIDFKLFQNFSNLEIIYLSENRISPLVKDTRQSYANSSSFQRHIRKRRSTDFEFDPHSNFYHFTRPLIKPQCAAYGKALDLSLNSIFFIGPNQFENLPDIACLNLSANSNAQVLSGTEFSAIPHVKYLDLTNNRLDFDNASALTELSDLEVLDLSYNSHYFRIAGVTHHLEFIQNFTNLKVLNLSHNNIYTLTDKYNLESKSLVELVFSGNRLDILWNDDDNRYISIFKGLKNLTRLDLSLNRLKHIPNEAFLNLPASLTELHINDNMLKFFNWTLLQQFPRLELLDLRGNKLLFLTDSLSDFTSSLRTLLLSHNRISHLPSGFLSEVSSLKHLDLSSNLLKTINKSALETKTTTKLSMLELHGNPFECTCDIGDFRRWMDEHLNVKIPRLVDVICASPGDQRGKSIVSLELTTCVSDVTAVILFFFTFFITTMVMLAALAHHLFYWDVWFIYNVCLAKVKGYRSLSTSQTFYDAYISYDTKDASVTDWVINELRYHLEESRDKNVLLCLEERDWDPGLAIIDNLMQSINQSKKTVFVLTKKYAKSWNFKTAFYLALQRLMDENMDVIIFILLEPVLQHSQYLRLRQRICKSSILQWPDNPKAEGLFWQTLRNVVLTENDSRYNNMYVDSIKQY
# ASSAY_TEXT: TLR8 inhibition reporter assay (HEK-Blue cells, SEAP reporter, R848 stimulation)
# CONDITION_DESCRIPTION: HEK-Blue cells overexpressing human TLR8, SEAP reporter, R848 15.9 μM
pIC50: −log10 of the molar value.

{"COMPOUND": "Cc1nn2ccc(-c3[nH]c4ccc(C5CCN(CC(=O)N(C)C)CC5)cc4c3C(C)C)cc2c1F [Example 399]", "SYSTEM_NAME": "human TLR8 (Homo sapiens)", "pIC50": "4.30 to 6.00"}
{"COMPOUND": "Cc1cc(-c2[nH]c3ccc(C4CCNCC4)cc3c2C(C)C)cn2c(C#N)cnc12 [Example 130]", "SYSTEM_NAME": "human TLR8 (Homo sapiens)", "pIC50": "> 7.00"}
{"COMPOUND": "COc1cc(-c2[nH]c3ccc(C4CCN(CCNS(C)(=O)=O)CC4)cc3c2C(C)C)nn2ncnc12 [Example 652]", "SYSTEM_NAME": "human TLR8 (Homo sapiens)", "pIC50": "> 7.00"}
{"COMPOUND": "Cc1cc(-c2[nH]c3ccc(C4CCN(CC(C)C)CC4)cc3c2C(C)C)cc2[nH]cnc12 [Example 955]", "SYSTEM_NAME": "human TLR8 (Homo sapiens)", "pIC50": "> 7.00"}
{"COMPOUND": "Cc1cc(-c2[nH]c3ccc(C4CCNCC4)cc3c2C(C)C)nn2ncnc12 [Example 30]", "SYSTEM_NAME": "human TLR8 (Homo sapiens)", "pIC50": "> 7.00"}

====

# SYSTEM_NAME: UniProt Q9NR97
# ASSAY_TEXT: TLR8 inhibition reporter assay (HEK-Blue cells, SEAP reporter, R848 stimulation)
# CONDITION_DESCRIPTION: HEK-Blue cells overexpressing human TLR8, SEAP reporter, R848 15.9 μM

{"SMI": "CC(C)c1c(-c2ccnc3[nH]ncc23)[nH]c2ccc(C3CCN(Cc4ccc(N5CCN(C)CC5)cc4)CC3)cc12", "IC50": "< 100 nM"}
{"SMI": "Cc1c(-c2[nH]c3ccc(C4CCN(C5COC5)CC4)cc3c2C(C)C)nn2ncnc2c1C", "IC50": "< 100 nM"}
{"SMI": "CNC(=O)CN1CCC(c2ccc3[nH]c(-c4cc(OC)c5nccn5c4)c(C(C)C)c3c2)CC1", "IC50": "< 100 nM"}
{"SMI": "CC(C)c1c(-c2ccc3cnnn3c2)[nH]c2ccc(C3CCN(Cc4ncn(C)n4)CC3)cc12", "IC50": "100 to 1000 nM"}
{"SMI": "CC(C)c1c(-c2cnc3[nH]nc(N)c3c2)[nH]c2ccc(C3CCNCC3)cc12", "IC50": "100 to 1000 nM"}
{"SMI": "Cc1c(-c2[nH]c3ccc(C4CCNCC4)cc3c2C(C)C)cn2ccnc2c1C(C)C", "IC50": "100 to 1000 nM"}
{"SMI": "CC(C)c1c(-c2cn3ccnc3cc2Cl)[nH]c2ccc(C3CCN(CC(=O)N(C)C)CC3)cc12", "IC50": "< 100 nM"}
{"SMI": "Cc1ncc(CN2CCC(c3ccc4[nH]c(-c5ccnc6[nH]ncc56)c(C(C)C)c4c3)CC2)[nH]1", "IC50": "< 100 nM"}
{"SMI": "CC(C)c1c(-c2cccn3ncnc23)[nH]c2ccc(C3CCNCC3)cc12", "IC50": "< 100 nM"}
{"SMI": "CC(C)c1c(-c2ccc3nnnn3c2)[nH]c2ccc(C3CCNCC3)cc12", "IC50": "100 to 1000 nM"}
{"SMI": "Cc1cc(-c2[nH]c3ccc(C4CCN(CC(=O)N(C)C)CC4)cc3c2C(C)C)c2ccccc2n1", "IC50": "< 100 nM"}
{"SMI": "Cc1c(-c2ccnc3[nH]cnc23)[nH]c2ccc(C3CCNCC3)cc12", "IC50": "100 to 1000 nM"}
{"SMI": "Cc1cc(-c2[nH]c3ccc(C4CCNCC4)cc3c2C(C)C)cc2cnnn12", "IC50": "< 100 nM"}
{"SMI": "Cc1cc(-c2[nH]c3ccc(C4CCN(C(=O)CCN5CCC(F)CC5)CC4)cc3c2C(C)C)cn2nnnc12", "IC50": "< 100 nM"}
{"SMI": "CNC(=O)CN1CCC(c2ccc3[nH]c(-c4cc(C)c5nnnn5c4)c(C(C)C)c3c2)CC1", "IC50": "< 100 nM"}
{"SMI": "CC(C)c1c(-c2cn3cnnc3c(O)n2)[nH]c2ccc(C3CCNCC3)cc12", "IC50": "> 3130 nM"}
{"SMI": "Cc1cc(-c2[nH]c3ccc(C4CCN(C(=O)CN(C)C)CC4)cc3c2C(C)C)cc2cncn12", "IC50": "< 100 nM"}
{"SMI": "CCc1c(-c2ccnc3[nH]nc(CC)c23)[nH]c2ccc(C3CCNCC3)cc12", "IC50": "< 100 nM"}
{"SMI": "CC(C)c1c(-c2cnc3nn(C)cc3c2)[nH]c2ccc(C3CCN(C(=O)CN(C)C)CC3)cc12", "IC50": "> 3130 nM"}
{"SMI": "CC(C)c1c(-c2cc(N)nc3[nH]cnc23)[nH]c2ccc(C3CCNCC3)cc12", "IC50": "< 100 nM"}
{"SMI": "CNC(=O)CN1CCC(c2ccc3[nH]c(-c4cc(C)nc5ccccc45)c(C(C)C)c3c2)CC1", "IC50": "< 100 nM"}
{"SMI": "Cc1cc(-c2[nH]c3ccc(C4CCNCC4)cc3c2C(C)C)cc2ocnc12", "IC50": "< 100 nM"}
{"SMI": "CC(C)c1c(-c2cc(Cl)c3ncccc3c2)[nH]c2ccc(C3CCN(CC(C)(C)O)CC3)cc12", "IC50": "< 100 nM"}
{"SMI": "CC(C)c1c(-c2cc(CO)c3nccn3c2)[nH]c2ccc(C3CCN(CC(=O)N(C)C)CC3)cc12", "IC50": "< 100 nM"}
{"SMI": "Cc1cc(-c2[nH]c3ccc(C4CCN(C5CCS(=O)(=O)CC5)CC4)cc3c2C(C)C)cc2cccnc12", "IC50": "100 to 1000 nM"}
